system: LXFL 529 NSCLC; experiment: NCI tumour cell line growth inhibition, 48 h
Listing of recorded TGI by entry.

[
  {
    "compound": "CCO/N=C(/N)c1ncn(Cc2ccccc2)c1NCC(OCC)OCC",
    "subject of test": "LXFL 529 NSCLC",
    "TGI": "> 100 µM"
  },
  {
    "compound": "O=C(Nc1ccc(Cl)cc1Cl)C(=O)C(C(=O)c1ccncc1)C1OC(=O)c2ccccc21 (stereo unspecified)",
    "subject of test": "LXFL 529 NSCLC",
    "TGI": "> 100 µM"
  },
  {
    "compound": "COc1ccc(CNc2nc3cc(C(F)(F)F)ccc3nc2C)cc1OC",
    "subject of test": "LXFL 529 NSCLC",
    "TGI": "> 100 µM"
  },
  {
    "compound": "CCOC(=O)CCn1[nH]c(=O)c(Cl)c(Cl)c1=O",
    "subject of test": "LXFL 529 NSCLC",
    "TGI": "> 100 µM"
  },
  {
    "compound": "CS(=O)(=O)c1cc(=O)c2ccccc2s1",
    "subject of test": "LXFL 529 NSCLC",
    "TGI": "3.02 µM"
  },
  {
    "compound": "CC1=N/C(=C\\c2cccc([N+](=O)[O-])c2)C(=O)O1",
    "subject of test": "LXFL 529 NSCLC",
    "TGI": "> 100 µM"
  },
  {
    "compound": "COC1=CC2(C=CC1=O)c1cc(OC)c(OC)cc1CCN2C(=O)c1ccccc1 (stereo unspecified)",
    "subject of test": "LXFL 529 NSCLC",
    "TGI": "> 100 µM"
  },
  {
    "compound": "Cc1nc2ccccc2c(=O)n1-c1ccccc1F",
    "subject of test": "LXFL 529 NSCLC",
    "TGI": "> 100 µM"
  },
  {
    "compound": "CN(C)C(c1ccccc1)C(O)c1ccccc1 (stereo unspecified)",
    "subject of test": "LXFL 529 NSCLC",
    "TGI": "> 100 µM"
  },
  {
    "compound": "CCCS(=O)(=O)/C(=C(\\c1ccc(Br)cc1)S(=O)(=O)CCC)c1ccc(Br)cc1",
    "subject of test": "LXFL 529 NSCLC",
    "TGI": "> 10 µM"
  },
  {
    "compound": "CC(=O)N1C/C(=C\\c2ccc(N(C)C)cc2)C(=O)/C(=C/c2ccc(N(C)C)cc2)C1",
    "subject of test": "LXFL 529 NSCLC",
    "TGI": "> 100 µM"
  }
]

----------
tested on: UO-31 renal; test: NCI tumour cell line growth inhibition, 48 h
readout name: TGI

[
  {
    "compound": "O=c1oc2cc(O)ccc2c(O)c1C(c1ccccc1F)c1c(O)c2ccc(O)cc2oc1=O",
    "value observed": "> 100 µM"
  },
  {
    "compound": "COc1ccc2nc3cc(Cl)ccc3c(NCCN)c2c1",
    "value observed": "2.95 µM"
  },
  {
    "compound": "C=C1CC[C@H](O)C(C)(C)[C@@H]1CC/C(C)=C/CC/C=C(\\C)CC/C=C(\\C)CCC=C(C)C",
    "value observed": "> 100 µM"
  },
  {
    "compound": "Cc1ccc(S(=O)(=O)OC(c2ccc(Cl)cc2Cl)C2OC(=O)c3ccccc32)cc1 (stereo unspecified)",
    "value observed": "95.6 µM"
  },
  {
    "compound": "O=C1O/C(=C(/Br)c2ccc(Cl)c(Cl)c2)c2ccccc21",
    "value observed": "> 10 µM"
  },
  {
    "compound": "FC(F)(F)c1nc(-c2ccccc2)oc1Sc1nnc(Sc2oc(-c3ccccc3)nc2C(F)(F)F)s1",
    "value observed": "> 100 µM"
  },
  {
    "compound": "CCCS(=O)(=O)/C(=C(\\c1ccc(Br)cc1)S(=O)(=O)CCC)c1ccc(Br)cc1",
    "value observed": "> 10 µM"
  },
  {
    "compound": "O=C(/C=C/c1c(O)ccc2ccccc12)c1ccccc1",
    "value observed": "> 100 µM"
  },
  {
    "compound": "CSC1=N/C(=C\\c2ccccc2)C(=O)N1CN1CCCCC1",
    "value observed": "> 100 µM"
  },
  {
    "compound": "Cn1c(=O)c2[nH]c(CCCCC(=O)O)nc2n(C)c1=O",
    "value observed": "> 100 µM"
  },
  {
    "compound": "Nc1ncn(C2CC(O)C(CO)O2)c(=O)n1 (stereo unspecified)",
    "value observed": "> 375 µM"
  },
  {
    "compound": "O=C1NCCCNCCCNCCCNC(=O)c2cccc1n2",
    "value observed": "> 100 µM"
  },
  {
    "compound": "COC1(OC)CC(CO)(CNc2nc(N)nc(Cl)c2/C=N\\O)C1",
    "value observed": "> 100 µM"
  },
  {
    "compound": "COc1cccc(/C=C2\\C(=O)N(C(=O)c3ccc(NC(C)=O)cc3)N=C2C)c1",
    "value observed": "> 100 µM"
  },
  {
    "compound": "Cc1ccc(NC(=O)NCCCOc2ccc(N3C(N)=NC(N)=NC3(C)C)cc2Cl)cc1S(=O)(=O)F",
    "value observed": "> 100 µM"
  },
  {
    "compound": "O=C(/C(=C/c1cccc([N+](=O)[O-])c1)c1ccccc1)c1ccccc1",
    "value observed": "5.85 µM"
  }
]
